Each record here notes measured log2 fold change of degron read counts.
Assay System: T1, CRBN, Q96SW2;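 also: pooled lentiviral library of zinc finger degron-EGFP fusions in mCherry-positive Jurkat cells, FACS-sorted after compound exposure, with degron abundance counted by next-generation sequencing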
T1 chain: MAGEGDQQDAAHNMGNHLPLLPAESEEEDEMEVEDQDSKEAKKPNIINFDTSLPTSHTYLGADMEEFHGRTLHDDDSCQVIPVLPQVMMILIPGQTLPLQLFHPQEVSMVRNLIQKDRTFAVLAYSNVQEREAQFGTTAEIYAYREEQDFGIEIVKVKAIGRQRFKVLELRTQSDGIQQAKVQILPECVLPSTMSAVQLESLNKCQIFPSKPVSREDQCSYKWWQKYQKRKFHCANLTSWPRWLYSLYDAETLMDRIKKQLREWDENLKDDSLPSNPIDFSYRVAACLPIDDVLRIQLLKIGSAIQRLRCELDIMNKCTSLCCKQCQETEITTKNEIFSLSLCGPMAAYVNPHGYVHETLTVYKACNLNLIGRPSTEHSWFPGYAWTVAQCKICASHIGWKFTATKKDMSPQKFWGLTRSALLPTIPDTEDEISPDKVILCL
Measurement Description: log2 fold change of degron read counts, EGFP-low vs EGFP+ sorted cells (limma voom), compound-induced degradation; higher = more compound-induced degradation of the degron-EGFP fusion; degrons are variants of IKZF1/3 zinc finger 2; compound dose not given here
Experimental Parameters: Jurkat; 18 h; compound: compound 19 (5-tert-butyl-thalidomide)
Over roughly 8,300 sequences, “log2 fold change of degron read counts, EGFP-low vs EGFP+ sorted cells (limma voom), compound-induced degradation” has its median near -1.1; the highest 2% begin near 3.2. Only a selection was taken, and the highest values are over-represented in it overall.
Measured Parameter: log2 fold change of degron read counts

> print(dat)
                             chain.sequence                      measured.parameter  result.value
1  FECEICGHTFTQKGNLLRHIKL [46F_47E_49E_50I_52G_53H_54T_55F_67L_, Q9UKT9]  log2 fold change of degron read counts         -3.53
2  FCCPVCGAHFTQKGNLLRHIKL [46F_47C_49P_50V_52G_53A_54H_55F_67L_, Q9UKT9]  log2 fold change of degron read counts          1.59
3  FMCPQCGAEFTQKGNLLRHIKL [46F_47M_49P_50Q_52G_53A_54E_55F_67L_, Q9UKT9]  log2 fold change of degron read counts         -2.82
4  FRCNQCGRVFTQKGNLLRHIKL [46F_47R_49N_50Q_52G_53R_54V_55F_67L_, Q9UKT9]  log2 fold change of degron read counts         -2.28
